Biological target: wild-type Androgen Receptor (AR-wt) (Homo sapiens)
Construct: expressed in transfected cells; host or cells: LNCaP AR (cs) cells with ARE firefly luciferase lentiviral construct
Test: LNCaP-AR-wt AG: ARE luciferase reporter assay, agonist mode
Format: cell-based
Conditions: maximum % stimulation (agonist response), % of 1 μM R-1881 max
assay_metric: LNCaP-AR-wt AG MAX % Stim (%)
// units = %; emit number, no label

>>> result("CN1CCC(Oc2ccc(N3C(=S)N(c4cnc(C#N)c(C(F)(F)F)c4)C(=O)C34CCC4)cc2F)CC1")
"−0.1"
>>> result("N#Cc1ncc(N2C(=O)C3(CCC3)N(c3ccc4[nH]ncc4c3)C2=S)cc1C(F)(F)F")
2.8
>>> result("Cc1cc(N2C(=O)C3(CCC3)N(c3ccc(-c4cncnc4)cc3)C2=S)cnc1C#N")
0.9

Dear colleague, I am looking for the recorded LNCaP-AR-wt AG MAX % Stim of the following compound: CC(C)(O)CNC(=O)c1ccc(N2C(=S)N(c3cnc(C#N)c(C(F)(F)F)c3)C(=O)C23CCC3)cc1F −0.1

Dear colleague, I am looking for the recorded LNCaP-AR-wt AG MAX % Stim of the following compound: Cc1cc(N2C(=O)C3(CCC3)N(c3ccc(C4CCOCC4)cc3)C2=S)cnc1C#N 1.1

====

Below, each of the compounds is paired with its reported LNCaP-AR-F876L AG MAX % Stim value.
Biological target: F876L mutant Androgen Receptor (AR-F876L) (Homo sapiens, UniProt P10275, F877L)
Construct: expressed in transfected cells; host or cells: LNCaP F876L cells with ARE firefly luciferase lentiviral construct
Sequence (P10275 1-920 F877L): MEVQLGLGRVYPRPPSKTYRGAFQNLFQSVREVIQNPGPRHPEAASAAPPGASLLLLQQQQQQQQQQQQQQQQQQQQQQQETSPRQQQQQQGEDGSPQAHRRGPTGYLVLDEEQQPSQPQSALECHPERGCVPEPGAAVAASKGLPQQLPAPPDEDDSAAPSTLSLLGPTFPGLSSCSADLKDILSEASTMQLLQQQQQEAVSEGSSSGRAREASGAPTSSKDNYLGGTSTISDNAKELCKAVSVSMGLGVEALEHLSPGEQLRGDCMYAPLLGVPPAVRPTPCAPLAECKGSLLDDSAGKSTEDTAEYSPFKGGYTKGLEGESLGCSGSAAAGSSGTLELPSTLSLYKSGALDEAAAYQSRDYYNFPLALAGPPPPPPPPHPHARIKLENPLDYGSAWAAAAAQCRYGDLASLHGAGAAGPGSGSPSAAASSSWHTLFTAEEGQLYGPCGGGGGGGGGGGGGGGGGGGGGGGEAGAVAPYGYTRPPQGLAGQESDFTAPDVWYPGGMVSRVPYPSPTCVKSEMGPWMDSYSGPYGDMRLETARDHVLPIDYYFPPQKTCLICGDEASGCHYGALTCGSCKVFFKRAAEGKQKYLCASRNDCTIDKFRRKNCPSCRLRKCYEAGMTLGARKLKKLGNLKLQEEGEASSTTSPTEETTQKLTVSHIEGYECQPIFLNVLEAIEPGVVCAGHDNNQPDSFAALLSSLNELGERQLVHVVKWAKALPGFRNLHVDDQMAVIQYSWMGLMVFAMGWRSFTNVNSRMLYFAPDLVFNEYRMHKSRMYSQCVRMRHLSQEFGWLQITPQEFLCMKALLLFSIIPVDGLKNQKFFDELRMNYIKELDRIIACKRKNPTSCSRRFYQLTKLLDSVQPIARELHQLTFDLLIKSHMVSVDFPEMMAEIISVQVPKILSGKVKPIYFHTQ
Experiment: LNCaP-AR-F876L AG: ARE luciferase reporter assay, agonist mode
Assay type: cell-based
Details: maximum % stimulation (agonist response), % of 1 μM R-1881 max
// units = %; emit number, no label

Here are 4 compounds together with their reported answers.
>>> result("N#Cc1ncc(N2C(=O)C3(CCC3)N(c3ccc4[nH]ncc4c3)C2=S)cc1C(F)(F)F")
1.3
>>> result("N#Cc1ncc(N2C(=O)C3(CCC3)N(c3ccccc3)C2=S)cc1C(F)(F)F")
0.9
>>> result("N#Cc1ncc(N2C(=O)C3(CCC3)N(c3cccc4ccccc34)C2=S)cc1C(F)(F)F")
0.2
>>> result("N#Cc1ncc(N2C(=O)C3(CCC3)N(c3ccc(C(=O)NCc4cccs4)c(F)c3)C2=S)cc1C(F)(F)F")
0.7

Dear colleague, I am looking for the recorded LNCaP-AR-F876L AG MAX % Stim of the following compound: Cc1cc(N2C(=O)C3(CCC3)N(c3ccc(Oc4ccncn4)cc3)C2=S)cnc1C#N 0.4
